Every entry's value here was drawn from patent US20130131075A1.

Values of Ki reported for cynomolgus BK1-receptor (Macaca fascicularis) appear below.
I only need the number, in µM, no unit after it.

Worked examples, 10 molecules total:
> print(dat)
                                    molecule                           measured.target  value.observed
 1  O=C(NC1(C(=O)NCc2ccc(Nc3ccc(F)cc3C(F)(F)F)cc2)CC1)c1cncs1 [(29)]  cynomolgus BK1-receptor (Macaca fascicularis)          0.0062
 2  O=C(N[C@@]1(C(=O)NCc2ccc(Nc3ccc(F)cc3C(F)(F)F)cc2)CCOC1)c1cncnc1 [(287)]  cynomolgus BK1-receptor (Macaca fascicularis)           0.011
 3  CN(C)c1ccc(C(=O)NC2(C(=O)NCc3ccc(Nc4ccc(Cl)cc4C(F)(F)F)cn3)CC2)cn1 [(263)]  cynomolgus BK1-receptor (Macaca fascicularis)           0.485
 4  Cc1ccc(C(=O)NC2(C(=O)NCc3ccc(Nc4ccc(Br)cc4C(F)(F)F)cn3)CC2)cn1 [(315)]  cynomolgus BK1-receptor (Macaca fascicularis)            0.04
 5  O=C(CC(F)(F)F)N[C@@]1(C(=O)NCc2ncc(Nc3c(F)cccc3C(F)(F)F)cc2Cl)CCOC1 [(261)]  cynomolgus BK1-receptor (Macaca fascicularis)           0.456
 6  O=C(NC1(C(=O)NCc2ccc(Nc3ccc(Cl)cc3C(F)(F)F)cn2)CC1)c1cc(O)nc(O)n1 [(208)]  cynomolgus BK1-receptor (Macaca fascicularis)          0.0068
 7  N#Cc1cc(F)ccc1Nc1ccc(CNC(=O)C2(NC(=O)c3cncnc3)CC2)cc1 [(36)]  cynomolgus BK1-receptor (Macaca fascicularis)           0.021
 8  O=C(NC1(C(=O)NCc2ccc(Nc3ccc(F)cc3C(F)(F)F)cn2)CC1)c1cnc2[nH]ccc2c1 [(384)]  cynomolgus BK1-receptor (Macaca fascicularis)           0.021
 9  O=C(N[C@@]1(C(=O)NCc2ccc(Nc3c(F)cccc3C(F)(F)F)cn2)CCOC1)c1cncnc1 [(46)]  cynomolgus BK1-receptor (Macaca fascicularis)            0.29
10  Cc1cncc(C(=O)NC2(C(=O)NCc3ccc(Nc4ccc(F)cc4C(F)(F)F)cn3)CC2)c1 [(302)]  cynomolgus BK1-receptor (Macaca fascicularis)           0.042

Kindly note: cynomolgus BK1-receptor (Macaca fascicularis), Nc1cncc(C(=O)N[C@@]2(C(=O)NCc3ncc(Nc4ccc(Cl)cc4C(F)(F)F)cc3F)CCOC2)c1 [(271)] , Ki value reported: 0.017

Kindly note: cynomolgus BK1-receptor (Macaca fascicularis), COc1ncc(C(=O)N[C@@]2(C(=O)NCc3ccc(Nc4ccc(Cl)cc4C(F)(F)F)cc3)CCOC2)cn1 [(333)] , Ki value reported: 0.089

Kindly note: cynomolgus BK1-receptor (Macaca fascicularis), O=C(NC1(C(=O)NCc2ccc(Nc3ccc(F)cc3C(F)(F)F)cn2)CC1)c1cncc(C(F)(F)F)c1 [(340)] , Ki value reported: 0.028
